biological target: Cannabinoid-1 receptor (CB1R) (Rattus norvegicus, UniProt P20272); construct: The tissue obtained from the brain of SD rats was homogenized; from tissue; host or cells: brain of SD rats (membrane pellet of the homogenate); experiment: Cannabinoid-1 receptor (CB1R) binding affinity assay ([3H]CP-55940, rat CB-1 receptor binding protocol); conditions: brain tissue of SD rats, [3H]CP-55940, 30° C. 60 min; read-out: IC50
Sequence (P20272 whole entry): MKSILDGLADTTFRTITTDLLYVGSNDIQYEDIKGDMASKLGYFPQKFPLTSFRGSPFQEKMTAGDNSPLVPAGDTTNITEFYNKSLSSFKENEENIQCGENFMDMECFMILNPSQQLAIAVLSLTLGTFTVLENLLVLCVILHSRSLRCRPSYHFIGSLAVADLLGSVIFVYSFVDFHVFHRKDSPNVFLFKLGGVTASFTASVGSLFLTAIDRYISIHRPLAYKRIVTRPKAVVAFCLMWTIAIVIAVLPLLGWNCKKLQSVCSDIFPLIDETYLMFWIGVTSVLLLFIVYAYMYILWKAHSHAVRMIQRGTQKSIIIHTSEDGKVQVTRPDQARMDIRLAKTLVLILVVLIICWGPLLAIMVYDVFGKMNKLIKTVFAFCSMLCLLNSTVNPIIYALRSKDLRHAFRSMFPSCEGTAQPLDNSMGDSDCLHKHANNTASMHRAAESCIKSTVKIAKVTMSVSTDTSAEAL
Please provide measured log10(IC50) for the entries that follow.
Heads up: the numbers are on a log10 scale; they represent IC50 in nM.

# COMPOUND, ENDPOINT VALUE
measured = [
    ("Cc1c(-c2nnn(CC3CCCCC3)n2)nn(-c2ccc(Cl)cc2Cl)c1-c1ccc(Cl)cc1", 1.93),
    ("Cc1c(-c2nnnn2C2CCCCCC2)nn(-c2ccc(Cl)cc2Cl)c1-c1ccc(Br)cc1", 1.22),
    ("CCC(C)(C)c1nnc(-c2nn(-c3ccc(Cl)cc3)c(-c3ccc(Cl)cc3)c2C)s1", 2.30),
    ("Clc1ccc(-c2c(Cn3cncn3)c(-c3nnc(C4(c5ccccc5)CCCC4)o3)nn2-c2ccc(Cl)cc2Cl)cc1", 0.72),
    ("CCn1nnnc1-c1nn(-c2ccc(Cl)cc2Cl)c(-c2ccc(Cl)cc2)c1C", 2.31),
    ("CCc1c(-c2nnnn2C2CCCC2)nn(-c2ccc(Cl)cc2Cl)c1-c1ccc(Br)cc1", 1.15),
]

Kindly give each listed record's log10(IC50).
1. CC(C)(c1ccc(Cl)cc1)c1nnc(-c2nn(-c3ccc(Cl)cc3Cl)c(-c3ccc(Cl)cc3)c2Br)s1
2. CCc1c(-c2nnc(C3(c4ccc(Cl)cc4Cl)CC3)o2)nn(-c2ccc(Cl)cc2Cl)c1-c1ccc(Cl)cc1
3. Cc1c(-c2nnc(C(C)(C)OCc3ccccc3F)o2)nn(-c2ccc(Cl)cc2Cl)c1-c1ccc(Cl)cc1
4. Cc1c(-c2nnc(-c3ccncc3)o2)nn(-c2ccc(Cl)cc2Cl)c1-c1ccc(Cl)cc1
5. C#Cc1c(-c2nnc(C(C)(C)C)o2)nn(-c2ccc(Cl)cc2Cl)c1-c1ccc(Cl)cc1
6. Cc1c(-c2nnnn2Cc2ccco2)nn(-c2ccc(Cl)cc2Cl)c1-c1ccc(Cl)cc1
7. Cc1c(-c2cc(C(C)(C)C)no2)nn(-c2ccc(Cl)cc2Cl)c1-c1ccc(Cl)cc1
8. CCc1c(-c2nnc(C3(c4cccc(Cl)c4)CC3)s2)nn(-c2ccc(Cl)cc2Cl)c1-c1ccc(Cl)cc1

stdout:
[1.47, 0.77, 1.40, 2.75, 1.03, 1.73, 1.98, 0.81]
